// data source = patent US20110130397A1

Assay Readout: melting point

Recorded melting point, per entry:
>  <Compound>
Cc1ccc(C(=O)C2=C(O)C(=O)N(c3ncnc4[nH]cnc34)C2c2cccc([N+](=O)[O-])c2)o1 (stereo not shown)

>  <melting point>
266 to 267 °C

$$$$
>  <Compound>
Cc1ccc(C(=O)C2=C(O)C(=O)N(c3nc4c(Cl)cccc4s3)C2c2ccc(C#N)cc2)o1 (stereo not shown)

>  <melting point>
273 to 274 °C

$$$$
>  <Compound>
Cc1ccc(C(=O)C2=C(O)C(=O)N(c3nc4ccc(Cl)cc4s3)C2c2cccc(F)c2F)o1 (stereo not shown)

>  <melting point>
253 to 254 °C

$$$$

Below: the item to evaluate.
Bench note: what melting point did CCOc1ccc2nc(N3C(=O)C(O)=C(C(=O)c4ccc(C)o4)C3c3ccc4c(c3)OCO4)sc2c1 (stereo not shown) show?
230 to 231 °C
